# System: Nucleic Acid
# MEASUREMENT PROTOCOL: The compound was tested for its binding affinity to Poly (dG-dC) by using ethidium displacement assay
# Assay type: nucleic-acid assay
METRIC NAME: C50 (µM)

{"STRUCTURE SMILES STRING": "C[n+]1ccc(Nc2ccc(NC(=O)c3ccc(Nc4cc[n+](C)c5ccccc45)cc3)cc2)cc1", "METRIC NAME": "C50", "RESULT": 2.8}
{"STRUCTURE SMILES STRING": "CN(C)CCCNC(=O)c1cccc(C(=O)Nc2ccc(NC(=O)CCCN(C)C)cc2)c1", "METRIC NAME": "C50", "RESULT": 55.6}
{"STRUCTURE SMILES STRING": "CN1CCN(c2ccc3[nH]c(-c4ccc5[nH]c(-c6ccc(O)cc6)nc5c4)nc3c2)CC1", "METRIC NAME": "C50", "RESULT": 1.4}
{"STRUCTURE SMILES STRING": "CN(C)CCCNC(=O)Nc1cccc(NC(=O)c2ccc(C(=O)NCCCN(C)C)cc2)c1", "METRIC NAME": "C50", "RESULT": 222}
{"STRUCTURE SMILES STRING": "CN(C)CCCNC(=O)c1ccc(C(=O)Nc2cccc(NC(=O)CCCN(C)C)c2)cc1", "METRIC NAME": "C50", "RESULT": 142}
{"STRUCTURE SMILES STRING": "N=C(N)c1ccc(/N=N/Nc2ccc(C(=N)N)cc2)cc1", "METRIC NAME": "C50", "RESULT": 5.7}
{"STRUCTURE SMILES STRING": "CN(C)CCCNC(=O)Nc1ccc(NC(=O)c2ccc(C(=O)NCCCN(C)C)cc2)cc1", "METRIC NAME": "C50", "RESULT": 77.3}
